OBSERVED PROPERTY: log10 of intrinsic clearance, human liver microsomes (log10 of the value in mL/min/kg)
In plain terms, each number is the log10 of measured intrinsic clearance, human liver microsomes in mL/min/kg.

C=CCNC1=C2C[C@@H](C)C[C@@H](OC)[C@@H](O)[C@@H](C)/C=C(\C)[C@@H](OC(N)=O)[C@@H](OC)/C=C\C=C(/C)C(=O)NC(=CC1=O)C2=O; 2.69

Problem: // returns reported log10 of intrinsic clearance, human liver microsomes for input "CCOCC(=O)NCc1cc(C2CC2)n(C2CCCC2)n1"
Result: 1.34

Problem: Another molecule to look at: "Cc1ccccc1CC(=O)N1CCN(C(=O)c2ccccc2)CC1"
Result: 0.79

Problem: Query "COC(=O)N1CCCN(C(=O)C(=O)Nc2cccc(C(C)C)c2)CC1" next
Result: 1.82
